- Experiment notes: Assessment of solubility: HT solubility in pION buffer, UV spectrophotometry
- Applied conditions: pH 6.8, aqueous buffer, kinetic from dmso stock, Solubility (pH 6.8), pH 6.8
Endpoint: solubility (µg/mL)

(a) Cc1ccc(OCc2ccc(C(=O)N3CCCCC3)c(C)c2)c(-c2csc(N3C[C@H]4CC[C@@H](C3)[C@H]4C(=O)O)n2)c1
(b) Cc1ccc(OCc2ccc(C(=O)N3CCOCC3)cc2C)c(-c2csc(N3CC4(CC4C(=O)O)C3)n2)c1 (stereo not shown)
Exercise: For a and b , which recorded solubility is lower? Reply with the label of the item you choose.
Key: a

(I) Cc1ccc(OCc2ccc(CN3CCN(C(=O)C4CC4)CC3)cc2C)c(-c2csc(N3CC(C4(C(=O)O)CC4)C3)n2)c1
(II) Cc1ccc(OCc2ccc(C(=O)N(C)CCO)cc2C)c(-c2csc(N3C[C@H]4CC[C@@H](C3)[C@H]4C(=O)O)n2)c1
(III) Cc1ccc(OCc2ccc(CN3CCN(C)C(=O)C3)cc2C)c(-c2csc(N3CC4CCC(C3)C4C(=O)O)n2)c1 (stereo not shown)
(IV) Cc1ccc(OCc2ccc(CN3CCS(=O)(=O)CC3)cc2C)c(-c2csc(N3CC4(CC4C(=O)O)C3)n2)c1 (stereo not shown)
Exercise: Please rank these compounds by solubility in descending order. Write the labels, ordered according to the request.
Key: II, III, I, IV
(II: 63 µg/mL, III: 35 µg/mL, I: 0.94 µg/mL, IV: 0.2 µg/mL)

(I) Cc1ccc(OCc2ccc(C(=O)N3CCn4ncnc4C3)cc2C)c(-c2csc(N3C[C@H]4CC[C@@H](C3)[C@H]4C(=O)O)n2)c1
(II) Cc1ccc(OCc2ccc(C(=O)N(C)Cc3nccn3C)cc2C)c(-c2csc(N3C[C@H]4CC[C@@H](C3)[C@H]4C(=O)O)n2)c1
Exercise: Hi team, can someone confirm which has the larger solubility: I or II ? Thanks. Reply with the label of the item you choose.
Key: I

(a) Cc1ccc(OCc2ccc(C(=O)N(C)Cc3cncn3C)cc2C)c(-c2csc(N3C[C@H]4CC[C@@H](C3)[C@H]4C(=O)O)n2)c1
(b) Cc1ccc(OCc2ccc(C(=O)N3CCCCC3)cc2C)c(-c2csc(N3CCCC(C)(C(=O)O)CC3)n2)c1 (stereo not shown)
(c) Cc1ccc(OCc2ccc(C(=O)N3CCCC(C#N)C3)cc2C)c(-c2csc(N3C[C@H]4CC[C@@H](C3)[C@H]4C(=O)O)n2)c1 (stereo partly shown)
Exercise: Hey, quick one: sort these by solubility, low to high? Write the labels, ordered according to the request.
Key: c, b, a

----------
- Tested system: Recombinant human soluble guanylate cyclase (sGC), alpha 1 / beta 1 subunits, heme-free (Homo sapiens, UniProt Q02108+Q02153)
- Construct: histidine tag (C); made in house; host or cells: Sf9 insect cells (baculovirus coinfection)
- Sequence (Q02108 whole entry partner): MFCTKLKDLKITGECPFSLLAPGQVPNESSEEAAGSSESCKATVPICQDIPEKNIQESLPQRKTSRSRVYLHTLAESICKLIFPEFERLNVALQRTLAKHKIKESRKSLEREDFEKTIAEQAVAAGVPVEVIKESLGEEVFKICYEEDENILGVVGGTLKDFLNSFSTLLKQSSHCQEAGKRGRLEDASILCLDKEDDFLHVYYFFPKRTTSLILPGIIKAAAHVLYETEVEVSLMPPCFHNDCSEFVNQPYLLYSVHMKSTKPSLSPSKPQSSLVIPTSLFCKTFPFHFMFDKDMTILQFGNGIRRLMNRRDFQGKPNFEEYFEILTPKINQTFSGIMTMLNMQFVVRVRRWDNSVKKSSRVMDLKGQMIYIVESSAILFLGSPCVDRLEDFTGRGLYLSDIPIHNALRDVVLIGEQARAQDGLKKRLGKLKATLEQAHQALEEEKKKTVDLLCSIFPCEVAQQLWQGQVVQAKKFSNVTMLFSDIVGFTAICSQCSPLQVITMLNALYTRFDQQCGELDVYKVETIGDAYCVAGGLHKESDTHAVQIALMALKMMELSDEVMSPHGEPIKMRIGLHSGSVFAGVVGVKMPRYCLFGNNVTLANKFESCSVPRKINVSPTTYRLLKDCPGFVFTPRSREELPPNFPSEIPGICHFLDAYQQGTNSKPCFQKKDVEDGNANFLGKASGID
- Sequence (Q02153 whole entry): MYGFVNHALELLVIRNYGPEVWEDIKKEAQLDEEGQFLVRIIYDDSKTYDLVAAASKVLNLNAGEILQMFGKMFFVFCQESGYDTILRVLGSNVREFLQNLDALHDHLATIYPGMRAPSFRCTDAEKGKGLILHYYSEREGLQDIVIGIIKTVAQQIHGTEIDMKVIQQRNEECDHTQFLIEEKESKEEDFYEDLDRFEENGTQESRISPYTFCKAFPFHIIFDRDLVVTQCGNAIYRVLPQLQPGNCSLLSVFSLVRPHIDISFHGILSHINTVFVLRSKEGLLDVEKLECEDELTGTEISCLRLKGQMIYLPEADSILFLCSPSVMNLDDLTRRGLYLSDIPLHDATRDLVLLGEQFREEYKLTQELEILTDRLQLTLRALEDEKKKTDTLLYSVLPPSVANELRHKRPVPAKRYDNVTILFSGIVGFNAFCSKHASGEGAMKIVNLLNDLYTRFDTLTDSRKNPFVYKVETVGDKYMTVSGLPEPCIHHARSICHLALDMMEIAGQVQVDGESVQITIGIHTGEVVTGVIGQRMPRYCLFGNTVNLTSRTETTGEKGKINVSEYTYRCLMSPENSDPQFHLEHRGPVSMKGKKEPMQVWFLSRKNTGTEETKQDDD
- Experiment notes: Molecular assay: cGMP formation by heme-free recombinant sGC (CisBio cGMP detection kit)
- Format: biochemical
- Applied conditions: 300 pM heme-free sGC, 37° C., 60 min, cGMP readout; read-out: EC50 nM, Activity of Compounds in Molecular Assay
- Procedure: Recombinant human soluble guanylate cyclase (sGC) is purified from Sf9 insect cells coinfected with baculoviruses expressing the alpha 1 or beta 1 subunit of sGC, both with a C-terminal histidine tag. […] sGC catalyzes the conversion of guanosine-5′-triphosphate (GTP) to cyclic guanosine monophosphate (cGMP). The activity of sGC is measured in vitro using the commercially available CisBio cGMP detection kit (catalog # 62GM2PEB) in a 384 well format. […]
Endpoint: EC50 (nM)

Exercise: Specify reported EC50 for the compound shown: Cc1cccc(-c2csc(N3CCC(C(=O)O)CC3)n2)c1OCc1ccc(C(=O)N2CCCC2)cc1C#N [Compound 31]
Key: 250

Exercise: Specify reported EC50 for the compound shown: Cc1ccc(OCc2ccc(C(=O)N3CCCCC3)cc2C)c(-c2csc(N3CCC(C(=O)O)CC3C(F)(F)F)n2)c1 (stereo not drawn) [Compound 141]
Key: 3.9

(P) Cc1ccc(OCc2ccc(CN3CCOCC3)cc2C)c(-c2csc(N[C@H]3CC[C@@H](C(=O)O)CC3)n2)c1 [Compound 201]
(Q) Cc1cc(C(=O)N2CCCCC2)ccc1COc1ccc(Cl)cc1-c1csc(N2CCC(C(=O)O)CC2C)n1 (stereo not drawn) [Compound 102]
Exercise: Hi team, can someone confirm which has the larger EC50: P or Q ? Thanks. Reply with the label of the item you choose.
Key: P

(I) Cc1ccc(OCc2ccc(CN3CCOCC3)cc2C)c(-c2csc(N3CCC(C(=O)O)C3)n2)c1 (stereo not drawn) [Compound 6]
(II) Cc1cc(C(=O)N2CCCC2)ccc1COc1c(C)cccc1-c1csc(N2CCC(C(=O)O)CC2)n1 [Compound 15]
(III) Cc1ccc(OCc2ccc(C(=O)N(C)C3CCCCC3)cc2C)c(-c2csc(N3CCC(C(=O)O)CC3)n2)c1 [Compound 164]
Exercise: Hey, quick one: sort these by EC50, low to high? Write the labels, ordered according to the request.
Key: III, II, I
(III: 55 nM, II: 190 nM, I: 610 nM)
